Reference source: patent US20170015742A1

Molecular target: T1, recombinant human VEGF-A 165 (human, UniProt P15692 207-395)
T1 construct: also called huVEGF-A165; hVEGF165
T1 sequence (P15692 other isoform, or with tags, fused parts or gaps limits assumed): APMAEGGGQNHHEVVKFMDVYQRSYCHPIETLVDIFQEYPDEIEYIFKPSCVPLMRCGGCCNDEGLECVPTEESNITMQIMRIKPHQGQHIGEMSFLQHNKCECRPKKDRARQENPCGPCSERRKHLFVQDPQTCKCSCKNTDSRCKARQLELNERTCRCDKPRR
Assay: receptor competition ELISA, biotinylated hVEGF165 binding to coated hVEGF-R2-Fc
Reported IC50 values for the following binders.
The reply should be a number in nM, with the unit left off.

Examples with answers:
>>> readout_value("BEW-3A1-D10-G9 (antibody, V domains shown, Rat hybridoma anti-human VEGF-A monoclonal antibody, isotype IgG2b/kappa) VH: QVQLEQSGAELVKPGTSVKLSCMASGYTSSSNHMNWMKQTTGQGLEWIGIINPGSGGTRYNVKFEGKATLTVDKSSSTAFMQLNSLTPEDSAVYYCARAGFPGPFSYYAMGAWGQGTSVTVSS VL: DIQMTQSPPVLSASVGDRVTLSCKASQNIHNNLDWYQQKHGEAPKLLIFYTNNLQTGIPSRFSGSGSGTDYTLTISSLQPEDVATYYCYQYNSGYTFGAGTKLELK")
0.124
>>> readout_value("BEW-1B10-B9-C3 (antibody, V domains shown, Rat hybridoma anti-human VEGF-A monoclonal antibody, isotype IgG2a/kappa) VH: EVQLVESGGGLVQPGRSLKLSCAASGFSFSKYDMAWFRQTPTKGLEWVASITTSGVGTYYRDSVKGRFTVSRDNAKSTLYLQMDSLRSEDTATYYCARGYGAMDAWGQGTSVTVSS VL: DIQMTQSPASLSASLEEIVTITCKASQDIDDYLSWYQQKPGKSPQLVIYAATRLADGVPSRFSGSGSGTQYSLKISRLQVDDSGIYYCLQSSSTPWTFGGGTNLELK")
0.326
>>> readout_value("BEW-9C2-D6 (antibody, V domains shown, Rat hybridoma anti-human VEGF-A monoclonal antibody, isotype IgG2b/kappa) VH: QIQLVQSGPELKKPGESVKVSCKASGYTFTNYGIHWVKQAPGQGLQYVGWINTETGRPTYADDFKGRFVFFLETSASTAYLQINNLKNEDMATYFCARPLYYGYAHYFDYWGQGVMVTVSS VL: DIQMTQSPASLSASLEEIVTITCQASQDIGNWLAWYQQKPGKSPQLLIYGATSLADGVPSRFSGSRSGTQYSLKISRLQVEDIGIYYCQQASSVTYTFGAGTKLELK")
0.155

Switching to the query record.
[Q] # query: IC50 of entry BDB-4G8-D4 (antibody, V domains shown, Rat hybridoma anti-human VEGF-A monoclonal antibody, isotype IgG2b/kappa) VH: QIQLVQSGPELKKPGESVKISCKASGYTFTNYGMYWVKQAPGQGLQYMGWINTETGKPTYADDFKGRFVFFLETSASTAYLQINNLKNEDMATYFCARTNYYYRSYIFYFDYWGQGTMVTVSS VL: DTVLTQSPALAVSPGERVSISCRASESVSTHMHWYQQKPGQQPKLLIYGASNLESGVPARFSGSGSGTDFTLTIDPVEADDTATYFCQQSWNDPFTFGAVTKLELK
[A] 0.13
